Tested on: T-47D breast
MEASUREMENT_PROTOCOL: NCI tumour cell line growth inhibition, 48 h; in the data active means GI50 below about 0.43 µM; inactive means the rest
Outcome codes: Y for active, N for inactive

COMPOUND | CLASS_ASSIGNMENT
O=C1/C(=C\c2cccn2Cc2ccccc2)c2ccccc2N1c1c(Cl)cccc1Cl | Y
c1ccc2c3ccn4cc5c(cc4c-3nc2c1)CCCC5 | N
O=C(CN(C1CCCCC1)C1CCCCC1)Nc1ccc(S(=O)(=O)c2ccc(NC(=O)CN(C3CCCCC3)C3CCCCC3)cc2)cc1 | N
O=C(Nc1cccc(Cl)c1Cl)c1cccc(NC2=C(Cl)C(=O)N(Cc3ccccc3)C2=O)c1 | N
OCCCCC#Cc1ccccc1C#Cc1cccc(O)c1 | N
C#CC(=O)Nc1cccc(Nc2nc3c(c(NCc4ccccc4)n2)CCCC3)c1 | N
C[C@H]1[C@H](C)CC[C@]2(C)CC[C@]3(C)C(=C[C@@H](O)[C@@H]4[C@@]5(C)[C@H](O)[C@@H](O)[C@H](O)C(C)(C)[C@@H]5CC[C@]43C)[C@H]12 | N
CCOC(=O)C1=C(C)N(N)C(=S)NC1c1ccc(C)cc1 (centres undefined) | N
COc1cc(/C=C2\C(=O)Nc3ccc(F)cc32)cc(OC)c1OC | N

====

The molecules listed here are annotated with their TGI.
Tested on: KM12 colon
MEASUREMENT_PROTOCOL: NCI tumour cell line growth inhibition, 48 h
RECORDED_METRIC: TGI

MOLECULE | RECORDED_METRIC | ENDPOINT_VALUE
O=C(Nc1ccc([N+](=O)[O-])cc1)C1C(=O)C(=O)N(c2ccc([N+](=O)[O-])cc2)C1=O (stereo unspecified) | TGI | > 100 µM
Cc1ccc(N(CSc2ccc(Cl)cc2)CSc2ccc(Cl)cc2)cc1 | TGI | 12.5 µM
CCC1OC2C(CC=C(C)C)=C3OC(C)(O)C(C)(CC)C(OC(=O)c4ccccc4)C3=C3OC(=O)C=C1C32 (stereo unspecified) | TGI | > 100 µM
O=S(O)CCCCSSCc1ccccc1CSSCCCCS(=O)O | TGI | 59.6 µM
Nc1nc(Cl)cc(NCCO)n1 | TGI | > 100 µM
CC(C)=CCS(=O)c1ccccc1NC1=CC(=O)CC(C)(C)C1 (stereo unspecified) | TGI | > 100 µM
N#CSc1nc[nH]c1C(N)=O | TGI | > 100 µM
COc1ccc2c(c1)CC[C@@H]1[C@@H]2CC[C@]2(C)C(=O)/C(=C/c3ccc(OC)c(OC)c3)C[C@@H]12 | TGI | > 100 µM
CNC(=S)N/N=C(C)\C(=N/NC(=S)NC)c1ccccc1 | TGI | > 100 µM
COc1ccc(CNc2c3ccccc3nc3ccccc23)cc1OC | TGI | 15.5 µM
N#C/C(=C\c1ccc(O)c(O)c1)C(N)=O | TGI | > 100 µM

====

Tested on: MOLT-4 leukemia
MEASUREMENT_PROTOCOL: NCI tumour cell line growth inhibition, 48 h
Item-by-item account of TGI

MOLECULE | TGI
N#CC1Nc2ccccc2[C@@H](O)C1O (stereo not given in full) | > 100 µM
Cc1cc(NC(=O)c2ccc(C)c(Nc3nccc(-c4cccnc4)n3)c2)cc(-n2cnc(C)c2)c1 | > 50 µM
O=C(Nc1cccc(Cl)c1Cl)c1cccc(NC2=C(Cl)C(=O)N(Cc3ccccc3)C2=O)c1 | 9.07 µM
CN(C)C(=O)NCCN1CCCCCc2ccccc21 | > 100 µM
C=CCN1C[C@H](C)N([C@H](c2ccc(C(=O)N(CC)CCO)cc2)c2cccc(OC)c2)C[C@H]1C | > 100 µM
